molecular target: PKBα (Homo sapiens, UniProt P31749); assay: PKB kinase assay (P33-labeled ATP, peptide substrate, filter plate); details: PKBα enzyme (full length or kinase domain with pleckstrin domain deleted)
Sequence (P31749 118-480 limits assumed): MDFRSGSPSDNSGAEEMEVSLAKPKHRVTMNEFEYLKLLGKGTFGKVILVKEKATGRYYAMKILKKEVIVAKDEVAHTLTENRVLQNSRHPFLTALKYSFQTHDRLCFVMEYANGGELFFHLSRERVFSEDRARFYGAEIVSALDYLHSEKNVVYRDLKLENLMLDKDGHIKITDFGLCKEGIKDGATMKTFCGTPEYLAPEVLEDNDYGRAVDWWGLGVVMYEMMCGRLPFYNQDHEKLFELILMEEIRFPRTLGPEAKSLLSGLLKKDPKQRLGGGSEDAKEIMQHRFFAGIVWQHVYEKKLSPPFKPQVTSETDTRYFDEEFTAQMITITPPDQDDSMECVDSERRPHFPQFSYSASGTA
pIC50: −log10 of the molar value.
# reported pIC50; entries follow

Previously resolved entries follow.
> print(dat)
                                chem.smiles                                  tgt  measured.result
1  Cc1nc(NC[C@@H](N)Cc2ccc(C(F)(F)F)cc2)sc1-c1nc2ccncc2s1  PKBα (Homo sapiens, UniProt P31749)     6.00 to 7.30
2  N[C@H](CNc1ncc(-c2ccc3c(c2)C2(CC2)C(=O)N3)s1)Cc1ccc(C(F)(F)F)cc1  PKBα (Homo sapiens, UniProt P31749)     6.00 to 7.30
3  COCc1nc(NC[C@@H](N)Cc2c[nH]c3ccccc23)sc1-c1nc2ccncc2s1  PKBα (Homo sapiens, UniProt P31749)     6.00 to 7.30

So for COCc1nc(NC[C@@H](N)Cc2ccc(C(F)(F)F)cc2)sc1-c1nc2ccncc2s1 , the logged pIC50 turned out to be > 7.30

So for Cn1c(=O)[nH]c2ccc(-c3cnc(NC[C@@H](N)Cc4ccc5ccccc5c4)s3)cc21 , the logged pIC50 turned out to be 6.00 to 7.30

So for N[C@H](CNc1nc(COCC(F)(F)F)c(-c2nc3ccncc3s2)s1)Cc1cccc(Cl)c1 , the logged pIC50 turned out to be 5.00 to 6.00

So for N[C@H](CNc1nc(C(=O)NCCO)c(-c2ccc3cnccc3c2)s1)Cc1ccc(C(F)(F)F)cc1 , the logged pIC50 turned out to be 5.00 to 6.00

So for N[C@H](CNc1ncc(-c2ccc3[nH]c(=O)oc3c2)s1)Cc1ccc(F)c(F)c1 , the logged pIC50 turned out to be 6.00 to 7.30

---

target: UniProtKB P31749; test: PKB kinase assay (P33-labeled ATP, peptide substrate, filter plate); conditions: PKBα enzyme (full length or kinase domain with pleckstrin domain deleted)
# reported IC50; entries follow

Previously resolved entries follow.
> print(dat)
                                 chem.smiles  measured.result
 1  N[C@H](CNc1ncc(-c2ccc3cnccc3c2)s1)Cc1cccc(Cl)c1        < 0.05 µM
 2  COCc1nc(NC[C@@H](N)Cc2ccc(Cl)cc2)sc1-c1nc2ccncc2s1        < 0.05 µM
 3  N[C@H](CNc1ncc(-c2ccc3cnccc3c2)s1)Cc1ccc(C(F)(F)F)c(F)c1        < 0.05 µM
 4  N[C@H](CNc1nc(C2CC2)c(-c2ccc3cnccc3c2)s1)Cc1ccc(C(F)(F)F)cc1     0.05 to 1 µM
 5  Nc1cc2cc(-c3cnc(NC[C@@H](N)Cc4ccc(C(F)(F)F)cc4)s3)ccc2cn1        < 0.05 µM
 6  N[C@H](CNc1ncc(-c2ccc3c(c2)CC(=O)N3)s1)Cc1ccc(Cl)s1     0.05 to 1 µM
 7  N[C@H](CNc1nc(C#CC2(O)CCC2)c(-c2ccc3cnccc3c2)s1)Cc1ccc(C(F)(F)F)cc1     0.05 to 1 µM
 8  COCc1nc(NC[C@@H](N)Cc2ccc(C(F)(F)F)cc2)sc1-c1ccc2cnccc2c1        < 0.05 µM
 9  N[C@H](CNc1nc(CO)c(-c2ccc3[nH]ncc3c2)s1)Cc1ccc(C(F)(F)F)cc1        < 0.05 µM
10  N[C@H](CNc1ncc(-c2cc3c(cc2F)NC(=O)C3)s1)Cc1ccc(C(F)(F)F)cc1        < 0.05 µM

So for CC(=O)OC[C@@H](c1ccc(C(F)(F)F)cc1)[C@H](N)CNc1ncc(-c2ccc3c(c2)CC(=O)N3)s1 , the logged IC50 turned out to be 0.05 to 1 µM

So for Nc1cc2cc(-c3cnc(NC[C@@H](N)Cc4ccc(Cl)cc4)s3)ccc2cn1 , the logged IC50 turned out to be < 0.05 µM

So for c1ccc(CNc2ncc(-c3nc4ccncc4s3)s2)cc1 , the logged IC50 turned out to be 1 to 10 µM

So for N[C@H](CNc1ncc(-c2ccc3[nH]c(=O)oc3c2)s1)Cc1cccc(C(F)(F)F)c1 , the logged IC50 turned out to be 0.05 to 1 µM

So for N[C@H](CNc1ncc(-c2ccc3cnccc3c2)s1)[C@@H](CO)c1ccc(C(F)(F)F)cc1 , the logged IC50 turned out to be < 0.05 µM
